Molecular target: N(G),N(G)-dimethylarginine dimethylaminohydrolase 1 (Homo sapiens, UniProt O94760)
Sequence (O94760 whole entry): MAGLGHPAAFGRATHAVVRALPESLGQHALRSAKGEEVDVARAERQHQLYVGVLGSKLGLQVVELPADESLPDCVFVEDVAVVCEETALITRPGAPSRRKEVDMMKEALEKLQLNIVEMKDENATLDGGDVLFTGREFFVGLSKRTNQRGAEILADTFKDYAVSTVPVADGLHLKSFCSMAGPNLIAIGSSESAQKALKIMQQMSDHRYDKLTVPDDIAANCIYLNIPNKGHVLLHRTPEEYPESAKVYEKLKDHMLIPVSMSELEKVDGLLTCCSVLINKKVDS
Experiment: Inhibition of recombinant human DDAH1 expressed in Escherichia coli BL21 Star (DE3) using ADMA as substrate assessed as decrease in citrulline production after 4 hrs by colorimetric method
Provide the reported IC50 of each item.
Give bare numbers, in µM.

COc1ccnc(C[S+]([O-])c2nc3cc(OC(F)F)ccc3[nH]2)c1OC (stereo not drawn) :: 63

Request: Recall the recorded IC50 for `CP(=O)(O)c1nc2ccccc2s1` with N(G),N(G)-dimethylarginine dimethylaminohydrolase 1 (Homo sapiens, UniProt O94760) and state it.
Result: 9.9

----------
Target: N(G),N(G)-dimethylarginine dimethylaminohydrolase 1 (Homo sapiens)
Experiment: Inhibition of recombinant human DDAH1 expressed in Escherichia coli BL21 Star (DE3) using SMTC as substrate assessed as decrease in L-citrulline and methanethiol production by CPM-based fluorimetric assay
Measurement Name: IC50

Request: Record request: IC50 value, item PHENYLMERCURIC ACETATE
Result: < 780 nM

----------
Target: N(G),N(G)-dimethylarginine dimethylaminohydrolase 1 (Homo sapiens)
Experiment: Inhibition of recombinant human DDAH1 expressed in Escherichia coli BL21 Star (DE3) using SMTC as substrate assessed as decrease in L-citrulline and methanethiol production by CPM-based fluorimetric assay
Measurement Name: IC50 (µM)
Give bare numbers, in µM.

Below: 2 compounds and their reported IC50.
CC1=CC(=O)C(Cl)=C(C)/C1=N/S(=O)(=O)c1ccc(C)cc1 :: 5.5
C/N=c1\nc(-c2ccccc2)n(-c2ccccc2)s1 :: 13.2

With those in mind, consider the next compound.
Request: GET /values?readout=IC50&item= `CC1=CC(=O)C=C(C)C1=NS(=O)(=O)c1ccccc1`
Result: 9.03
